# experiment.summary: Log P by shaking flask method (n-octanol/water)
# Type: physicochemical
# condition.label: 25 °C, 36 h, read-out: Log P Value
metric.name: logP at 36 h
API note: the answer field is a bare number with no unit suffix.

State its logP at 36 h for this compound: CC(C)=C/C=C/[C@H](C)[C@H]1CC[C@]2(C)C[C@@H]3C(C)=CC(=O)[C@H]3/C(C=O)=C\C[C@@H]12 [MHO7, 6-epi-ophiobolin G]
1.27

----------
# experiment.summary: Tissue distribution after single oral dose
# Format: in vivo, mice
# condition.label: KM, mouse, liver; 12 h; oral 500 mg·kg^−1, female mice; read-out: Concentration in Liver
metric.name: concentration at 12 h (ng/g)
Dear colleague, please return just the value in ng/g, with no unit written.

State its concentration at 12 h for this molecule: CC(C)=C/C=C/[C@H](C)[C@H]1CC[C@]2(C)C[C@@H]3C(C)=CC(=O)[C@H]3/C(C=O)=C\C[C@@H]12 [MHO7, 6-epi-ophiobolin G]
490
